assay: Binding affinity against S1 subsite of the Tetanus neurotoxin (TeNt); parameters: species or system Clostridium tetani
pKi: −log10 of the molar value.
Output criterion met for pKi not less than 4; output criterion not met otherwise.

CN(C)C(=O)c1cccc(C(N)CS)c1 (stereo unspecified)
criterion not met
NC(CS)c1cccc(S(N)(=O)=O)c1 (stereo unspecified)
criterion met

Request: Is the recorded value of pKi equal to or greater than 4 for this compound? NCC(CS)CCS(=O)(=O)O (stereo unspecified)
Response: criterion not met

Request: Is the recorded value of pKi equal to or greater than 4 for this compound? NC(CS)c1cccc(S(=O)(=O)O)c1 (stereo unspecified)
Response: criterion met

Just for reference, ChEMBL document CHEMBL1131081 is where these values come from.
